Taken from the Human Domainome abundance scans (Beltran et al. 2025).

B1: Zinc finger homeobox protein 3, residues 2147 to 2202; numbered along this chain, Q15911 (parent)
chain: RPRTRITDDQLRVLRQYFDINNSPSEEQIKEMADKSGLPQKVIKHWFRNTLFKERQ

- Variants of: B1
- test_description: abundance fitness (aPCA) (normalised: wild type 0, dead -1); higher = more abundant; growth selection in yeast, the domain comes from the species named
- run_conditions: Homo sapiens
abundance fitness listing for selected variants.
Number only, please.

Exam item: Find the recorded abundance fitness belonging to R12T and report it.
Marked response: -0.205

Exam item: // next record K53A
Marked response: 0.017

Exam item: // next record V42R
Marked response: -0.028

Exam item: // next record T7L
Marked response: -0.273

Exam item: // next record W46D
Marked response: -0.361

Exam item: // next record K53T
Marked response: 0.017

Exam item: // next record L11H
Marked response: -0.399

Exam item: // next record S25I
Marked response: -0.361

Exam item: // next record Q28F
Marked response: -0.562

Exam item: // next record D8W
Marked response: -0.277

Exam item: // next record D8E
Marked response: -0.012
